Target: Recombinant human Chk-1 (GST-Chk-1) (Homo sapiens, UniProt O14757)
Construct: made in house; host or cells: insect cells (baculovirus, Bac-to-Bac expression system)
Sequence (O14757 whole entry): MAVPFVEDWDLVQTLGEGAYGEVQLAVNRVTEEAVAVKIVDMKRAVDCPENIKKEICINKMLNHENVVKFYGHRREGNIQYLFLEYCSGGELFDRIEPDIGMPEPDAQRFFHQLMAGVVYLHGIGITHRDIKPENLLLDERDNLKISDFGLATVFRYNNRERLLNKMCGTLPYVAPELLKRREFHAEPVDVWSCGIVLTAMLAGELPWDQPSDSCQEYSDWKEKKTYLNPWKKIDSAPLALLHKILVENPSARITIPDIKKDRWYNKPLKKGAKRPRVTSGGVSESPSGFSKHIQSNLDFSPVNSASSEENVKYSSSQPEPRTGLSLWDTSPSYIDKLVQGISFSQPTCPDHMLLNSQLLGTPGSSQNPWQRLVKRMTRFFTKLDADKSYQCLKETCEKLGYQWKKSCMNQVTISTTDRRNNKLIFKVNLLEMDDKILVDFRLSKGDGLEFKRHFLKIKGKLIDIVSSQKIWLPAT
Experiment: Chk-1 FlashPlate Kinase Assay
Type: biochemical
Details: at a concentration of 10 μM; read-out: inhibition of Chk-1 (Chk-1 induced 33P incorporation)

chem.smiles | system | inhibition at 10 µM
Cc1cnc(NC(=O)Nc2cc(Cl)ccc2OCCCNC(=O)CN2CCOCC2)cn1 | Recombinant human Chk-1 (GST-Chk-1) (Homo sapiens, UniProt O14757) | ≥ 50%
CN(C)CC(=O)NCCCOc1ccc(Cl)cc1NC(=O)Nc1ccc(C#N)cn1 | Recombinant human Chk-1 (GST-Chk-1) (Homo sapiens, UniProt O14757) | ≥ 50%
Cc1cnc(NC(=O)Nc2cc(Cl)ccc2OCCCNC(=O)N2CCOCC2)cn1 | Recombinant human Chk-1 (GST-Chk-1) (Homo sapiens, UniProt O14757) | ≥ 50%
Cc1cnc(NC(=O)Nc2cc(Cl)ccc2OCC(=O)N2CCOCC2)cn1 | Recombinant human Chk-1 (GST-Chk-1) (Homo sapiens, UniProt O14757) | ≥ 50%
CN1CCN(C(=O)CCCOc2ccc(Cl)cc2NC(=O)Nc2ccc(C#N)cn2)CC1 | Recombinant human Chk-1 (GST-Chk-1) (Homo sapiens, UniProt O14757) | ≥ 50%
Cc1cnc(NC(=O)Nc2cc(Cl)ccc2OCCCNC(=O)c2ccc(N(C)C)cc2)cn1 | Recombinant human Chk-1 (GST-Chk-1) (Homo sapiens, UniProt O14757) | ≥ 50%
NC(=O)c1ccc(NC(=O)Nc2cc(Cl)ccc2OCCCNC(=O)[C@@H](N)Cc2ccc(Cl)cc2)nc1 | Recombinant human Chk-1 (GST-Chk-1) (Homo sapiens, UniProt O14757) | ≥ 50%
